# literature pull: UniProtKB P07477 pIC50
# Sequence (P07477 whole entry): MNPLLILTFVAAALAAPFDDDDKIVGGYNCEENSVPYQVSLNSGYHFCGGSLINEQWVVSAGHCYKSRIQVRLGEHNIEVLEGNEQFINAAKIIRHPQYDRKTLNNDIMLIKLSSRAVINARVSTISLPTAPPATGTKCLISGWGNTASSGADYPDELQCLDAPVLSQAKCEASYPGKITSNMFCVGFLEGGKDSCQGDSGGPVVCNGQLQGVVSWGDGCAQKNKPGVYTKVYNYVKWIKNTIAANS
pIC50: −log10 of the molar value.

O=C(Nc1ccc(Cl)cc1C(=O)Nc1ccc(Cl)cn1)c1ccc(CN2CCCC2=O)cc1 = < 4.96
CCOC(=O)CN(C)Cc1ccc(C(=O)Nc2ccc(Cl)cc2C(=O)Nc2ccc(Cl)cn2)cc1 = < 4.96
O=C(Nc1ccc(Cl)cc1C(=O)Nc1ccc(Cl)cn1)c1ccc(CN2CCC(C(=O)O)CC2)cc1 = < 4.96
CCN(CC)Cc1ccc(C(=O)Nc2ccc(Cl)cc2C(=O)Nc2ccc(Cl)cn2)cc1 = < 4.96
COc1ccc2cc(-n3nc(C)cc3C(=O)Nc3ccc(-c4ccccc4S(N)(=O)=O)cc3)ccc2c1 = < 4.96
CN(Cc1ccc(C(=O)Nc2ccc(Cl)cc2C(=O)Nc2ccc(Cl)cn2)cc1)C1=NCCO1 = < 4.96
CCN(C)Cc1ccc(C(=O)Nc2ccc(Cl)cc2C(=O)Nc2ccc(Cl)cn2)cc1 = < 4.96
Cc1cc(C(=O)Nc2ccc(-c3ccccc3S(N)(=O)=O)cc2)n(-c2ccc3cc(Br)ccc3c2)n1 = < 4.96

GET /value?item= CC(C)(C)OC(=O)NC(C(=O)N1CCC[C@H]1C(=O)NC(C=O)CCCNC(=N)N)c1ccc(Cl)c(Cl)c1 (some centres undefined) &field=pIC50 returns 7.82

pIC50 reported for this molecule O=C(Nc1ccc(Cl)cc1C(=O)Nc1ccc(Cl)cn1)c1ccc(CN2CCNC2=O)cc1 : < 4.96

The recorded pIC50 for entry CN1CCN(Cc2ccc(C(=O)Nc3ccc(Cl)cc3C(=O)Nc3ccc(Cl)cn3)cc2)CC1 equals < 4.96

pIC50 reported for this molecule Cc1cc(C(=O)Nc2ccc(-c3ccccc3S(N)(=O)=O)cc2)n(-c2cc3ccccc3cc2S(N)(=O)=O)n1 : < 4.96

The molecule identified as C=CCN(CC(=O)OCC)C(=O)/C(C)=C/c1ccc(C(=O)Oc2ccc(C(=N)N)cc2)cc1.CS(=O)(=O)O registered its pIC50 at 7.95

The reported value for Cc1cc(C(=O)Nc2ccc(C(=N)N(C)C)cc2F)n(-c2ccc3cc(Cl)ccc3c2)n1 in terms of pIC50 is < 5.00
